Assay Target: SGK1 (human), O00141 [S422D]
Sequence (O00141 whole entry S422D, looked up): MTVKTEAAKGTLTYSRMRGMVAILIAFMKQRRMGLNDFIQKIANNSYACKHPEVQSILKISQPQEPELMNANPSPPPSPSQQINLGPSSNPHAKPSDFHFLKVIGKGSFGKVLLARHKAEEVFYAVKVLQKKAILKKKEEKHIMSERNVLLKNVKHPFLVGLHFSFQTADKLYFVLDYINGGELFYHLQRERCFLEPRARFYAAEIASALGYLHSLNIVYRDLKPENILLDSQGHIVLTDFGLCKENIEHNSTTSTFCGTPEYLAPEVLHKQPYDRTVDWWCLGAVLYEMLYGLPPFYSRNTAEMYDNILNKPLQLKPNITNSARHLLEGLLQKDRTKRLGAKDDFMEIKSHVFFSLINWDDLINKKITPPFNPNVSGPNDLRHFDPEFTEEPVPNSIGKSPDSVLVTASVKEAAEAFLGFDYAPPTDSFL
Assay Info: radiometric filter-binding kinase assay
Setup Conditions: ATP 100 µM
Experimental Readout: pIC50
# log scale: pIC50 equals minus log10 of the concentration in mol/L

# get_value(readout= pIC50, system= SGK1 (human), O00141 [S422D]) for `O=C1Nc2ccccc2/C1=C1\Nc2ccccc2\C1=N/O`
6.42

###

Assay Target: CSK (human) (UniProt P41240)
Sequence (P41240 whole entry, looked up): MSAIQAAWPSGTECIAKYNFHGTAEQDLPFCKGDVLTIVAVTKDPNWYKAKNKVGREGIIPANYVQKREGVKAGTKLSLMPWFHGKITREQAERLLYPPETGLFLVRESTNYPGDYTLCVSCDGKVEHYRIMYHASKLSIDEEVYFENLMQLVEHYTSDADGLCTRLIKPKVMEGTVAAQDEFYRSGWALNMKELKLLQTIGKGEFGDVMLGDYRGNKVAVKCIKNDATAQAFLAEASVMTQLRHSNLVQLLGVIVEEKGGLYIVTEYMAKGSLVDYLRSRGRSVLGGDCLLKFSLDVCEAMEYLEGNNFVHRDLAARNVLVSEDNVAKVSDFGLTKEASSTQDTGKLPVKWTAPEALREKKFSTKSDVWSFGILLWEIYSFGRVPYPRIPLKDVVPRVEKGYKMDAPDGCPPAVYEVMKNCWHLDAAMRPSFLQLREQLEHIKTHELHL
Assay Info: radiometric filter-binding kinase assay
Setup Conditions: compound 10.0 µM; ATP 100 µM
Experimental Readout: residual activity (%)
Give the value, in units of %, as a plain number.

Sample answers from the record:
Smiles Representation	residual activity / %
Cc1ccc(-c2nn(C(C)(C)C)c3ncnc(N)c23)cc1	3
O=C1Nc2ccccc2/C1=C1\Nc2ccccc2\C1=N/O	105
O=C1Cc2c([nH]c3ccc(Br)cc23)-c2ccccc2N1	86
CC(C)[C@H](CO)Nc1nc(Nc2cccc(Cl)c2)c2ncn(C(C)C)c2n1	20
CC[C@@H](CO)Nc1nc(NCc2ccccc2)c2ncn(C(C)C)c2n1	109

// lookup residual activity for `COC(=O)[C@@]1(OC)C[C@@H]2O[C@]1(C)n1c3ccccc3c3c4c(c5c6ccccc6n2c5c31)C(=O)N(C)C4`
93

// lookup residual activity for `O=C(O[C@@H]1Cc2c(O)cc(O)cc2O[C@@H]1c1cc(O)c(O)c(O)c1)c1cc(O)c(O)c(O)c1`
76

// lookup residual activity for `CC(C)(C)n1nc(-c2ccc(Cl)cc2)c2c(N)ncnc21`
3

// lookup residual activity for `Nc1ncnc2c1cnn2-c1ccccc1`
96

// lookup residual activity for `CN(C)S(=O)(=O)c1ccc2c(c1)/C(=C/c1cc3c([nH]1)CCCC3)C(=O)N2`
89

// lookup residual activity for `O=C1Cc2c([nH]c3ccc([N+](=O)[O-])cc23)-c2ccccc2N1`
90

// lookup residual activity for `O=C1c2ccccc2-c2n[nH]c3cccc1c23`
71

###

System: DYRK1A (rat)
Assay Info: radiometric filter-binding kinase assay
Setup Conditions: compound 10.0 µM; ATP 100 µM; accession and sequence are those of the human protein
Experimental Readout: residual activity (%)
Give the value, in units of %, as a plain number.

Sample answers from the record:
Smiles Representation	residual activity [%]
O=C1Cc2c([nH]c3ccc([N+](=O)[O-])cc23)-c2ccccc2N1	102
O=C(O[C@@H]1Cc2c(O)cc(O)cc2O[C@@H]1c1cc(O)c(O)c(O)c1)c1cc(O)c(O)c(O)c1	9
Cc1ccc(-c2nn(C(C)(C)C)c3ncnc(N)c23)cc1	101
CN(C)S(=O)(=O)c1ccc2c(c1)/C(=C/c1cc3c([nH]1)CCCC3)C(=O)N2	23
O=C1Cc2c([nH]c3ccc(Br)cc23)-c2ccccc2N1	116

Moving on to the next compound.
// lookup residual activity for `CC(C)(C)n1nc(-c2ccc(Cl)cc2)c2c(N)ncnc21`
94

###

Assay Target: CHEK1 (human)
Assay Info: radiometric filter-binding kinase assay
Setup Conditions: compound 10.0 µM; ATP 100 µM
Experimental Readout: residual activity

Sample answers from the record:
Smiles Representation	Reported
CC(C)[C@H](CO)Nc1nc(Nc2cccc(Cl)c2)c2ncn(C(C)C)c2n1	78%
CN(C)S(=O)(=O)c1ccc2c(c1)/C(=C/c1cc3c([nH]1)CCCC3)C(=O)N2	66%
Cc1ccc(-c2nn(C(C)(C)C)c3ncnc(N)c23)cc1	91%
O=C1Nc2ccccc2/C1=C1\Nc2ccccc2\C1=N/O	38%

Moving on to the next molecule.
// lookup residual activity for `CC[C@@H](CO)Nc1nc(NCc2ccccc2)c2ncn(C(C)C)c2n1`
95%
